# Tested on: HS 578T breast
# Procedure Summary: NCI tumour cell line growth inhibition, 48 h
# Lookup of reported TGI keyed by entry
# number only, unit µM dropped from output

Known TGI results, listed for orientation:
compound="O=C(CC(C(=O)c1cccs1)c1ccsc1)c1ccco1 (configuration not stated)" measurement_target="HS 578T breast" readout_unit=µM assay_result=47
compound="CCCCCN(CCCCC)CC(O)c1cc2c(c3ccccc13)CCCC2 (configuration not stated)" measurement_target="HS 578T breast" readout_unit=µM assay_result=23.9
compound="OC(CNC1CCCC1)Cn1c2ccccc2c2ccccc21 (configuration not stated)" measurement_target="HS 578T breast" readout_unit=µM assay_result=83.7

// lookup TGI for `O=C(NCCN1CCCC1)c1cn2c(ccc3sc4ccccc4c(=O)c32)n1`
33.3

// lookup TGI for `COc1cc(-c2oc3c(OC)c(O)c(OC)c(O)c3c(=O)c2OC)ccc1O`
40.1

// lookup TGI for `O=[N+]([O-])c1ccc(NC(=S)Nc2ccccn2)cc1`
63

// lookup TGI for `COC(=O)/C=C(/C(=O)OC)c1c(C)cc2c(C)cc(C)cc(C)c1-2`
51.1

// lookup TGI for `CCCCCCCCCCCC[n+]1ccc(C(N)=O)cc1`
8.49

// lookup TGI for `CS(=O)(=O)Nc1cc(-c2ccc3ncnc(Nc4ccc5c(cnn5Cc5ccccc5F)c4)c3c2)cnc1Cl`
1.84

// lookup TGI for `N=C(N)c1ccc(-c2ccc(-c3cccs3)s2)nc1`
4.66

// lookup TGI for `CN1CCN(CCCCN2c3ccccc3Sc3ccc(N=[N+]=[N-])cc32)CC1`
30.7

// lookup TGI for `CN(C)/C=C/c1nnnn1-c1ccc(I)cc1`
45.2

// lookup TGI for `CC(C)c1ccc2[nH]c(O)c(C3=Nc4ccccc4C3=O)c2c1`
85.3

---

# Test system: UACC-257 melanoma
# Procedure Summary: NCI tumour cell line growth inhibition, 48 h
Value Type: TGI (µM)
# number only, unit µM dropped from output

Known TGI results, listed for orientation:
compound=CS(=O)(=O)Nc1cc(-c2ccc3ncnc(Nc4ccc5c(cnn5Cc5ccccc5F)c4)c3c2)cnc1Cl measurement_target="UACC-257 melanoma" value_type=TGI readout_unit=µM assay_result=9
compound=COc1cc2cccc(NC(=O)c3cc(OC)c(OC)c(OC)c3Br)c2cc1OC measurement_target="UACC-257 melanoma" value_type=TGI readout_unit=µM assay_result=16.7
compound="Cc1nn(-c2nc3ccccc3[nH]2)c2c1C(c1ccc3c(c1)OCO3)CC(=O)N2 (stereo not given)" measurement_target="UACC-257 melanoma" value_type=TGI readout_unit=µM assay_result=6.96

// lookup TGI for O=CC1C[C@@H](N2C(=O)O[C@@H](c3ccccc3)[C@H]2c2ccccc2)[C@@H]1COCc1ccccc1 (stereo not given in full)
41.7

// lookup TGI for `C=C1C(=O)O[C@H]2[C@H]1CC/C(CNS(=O)(=O)c1cccc3ccccc13)=C\CC[C@@]1(C)O[C@@H]21`
3.89

// lookup TGI for CSC1C(=O)c2ccccc2/C(=N/Nc2nc3ccccc3s2)C1C (stereo not given)
18.9

// lookup TGI for `COc1cccc2c(=O)c3c(sc12)c(NCCN(C)C)nc1ccccc13`
3.5

---

# Lookup of reported TGI keyed by entry
# Test system: LOX IMVI melanoma
# Procedure Summary: NCI tumour cell line growth inhibition, 48 h

compound=Clc1ccc(-c2nnc(C34CC5CC(CC(C5)C3)C4)o2)cc1 value_type=TGI assay_result="> 100 µM"
compound=Cc1csc2nc3[nH]ncc3c(=O)n12 value_type=TGI assay_result="> 100 µM"
compound=CCCCc1ccc(Nc2nc(N)c3ncn(COCCO)c3n2)cc1 value_type=TGI assay_result="37.4 µM"
compound=COc1ccc(/C=C/C(=O)c2cc3c(N)c(C(=O)Nc4ccccc4)sc3nc2C)cc1 value_type=TGI assay_result="2.77 µM"
compound=N/C(COc1ccc(Cl)cc1)=N\NC(=O)c1ccncc1 value_type=TGI assay_result="> 100 µM"

// lookup TGI for COc1ccc2nc3ccc(OC)cc3c(SCC3CO3)c2c1 (stereo unspecified)
33.4 µM

// lookup TGI for `O=C1NC(=NC2CCCCC2)C2(CCN(CCCC3(c4ccc(F)cc4)OCCO3)CC2)N1c1ccccc1`
39 µM

// lookup TGI for `O=C1CCc2cc3c(cc21)CC1(Cc2cc4c(cc2C1)CCCC4)C3`
> 100 µM

// lookup TGI for Cc1cccc2c1C(=O)OC2(C)c1cccc2ccccc12 (stereo unspecified)
> 100 µM

// lookup TGI for CC1=C(C(=O)Nc2ccc(F)c(Cl)c2)C(c2cccc(Oc3ccccc3)c2)NC(=O)N1 (stereo unspecified)
28.7 µM

// lookup TGI for CC[N+]1(C)CCC(O)(/C=C/c2ccc(Cl)cc2)C(C(=O)/C=C/c2ccc(Cl)cc2)C1 (stereo unspecified)
> 21.6 µM

// lookup TGI for `C=CC(=O)Nc1cccc(C)c1Nc1ncc2cc(-c3c(Cl)c(OC)cc(OC)c3Cl)ccc2n1`
14.1 µM

// lookup TGI for `C1=NCCNCCN=Cc2ccccc2OCc2cccc(n2)COc2ccccc21`
34 µM

// lookup TGI for `CN(C)c1ccc(N=Nc2cccc3ncccc23)cc1`
> 100 µM

// lookup TGI for `CCOC(=O)/C=C/c1c[nH]c(C(=O)OCC)c1`
> 100 µM

// lookup TGI for COc1ccc(NS(=O)c2ccc(OC)cc2)cc1 (stereo unspecified)
> 100 µM

---

# System: MOLT-4 leukemia
# Procedure Summary: NCI tumour cell line growth inhibition, 48 h
# Lookup of reported TGI keyed by entry

molecule="COC(=O)C(CC(=O)Nc1ccc(Cl)c(Cl)c1)C(=O)C(=O)NC1C2CC3CC(C2)CC1C3 (configuration not stated)" measurement_target="MOLT-4 leukemia" assay_result="> 100 µM"
molecule=O=C(n1c(=O)n(-c2ccc(Cl)cc2)c(=O)n1C(=O)C(Cl)(Cl)Cl)C(Cl)(Cl)Cl measurement_target="MOLT-4 leukemia" assay_result="> 100 µM"
molecule=C[CH2][Sn]([CH2]C)([O]C(=O)c1cccc(F)c1)[O][Sn]([CH2]C)([CH2]C)[O]C(=O)c1cccc(F)c1 measurement_target="MOLT-4 leukemia" assay_result="> 100 µM"
molecule=COc1ccc(CCc2ccccc2CC(=O)O)cc1 measurement_target="MOLT-4 leukemia" assay_result="> 100 µM"
molecule=Cc1ccc(S(=O)(=O)c2c3[nH]c4ccccc4nc3n3c2nc2ccccc23)cc1 measurement_target="MOLT-4 leukemia" assay_result="> 100 µM"

What is its TGI for MOLT-4 leukemia? Entry: `OC(C/C(=N\N=C(/CC(O)(C(F)(F)F)C(F)(F)F)c1ccccc1)c1ccccc1)(C(F)(F)F)C(F)(F)F`
> 10 µM

What is its TGI for MOLT-4 leukemia? Entry: `COc1ccccc1/C=N/N=C(\N)NO`
> 100 µM

What is its TGI for MOLT-4 leukemia? Entry: `CCOC(=O)c1nc2ccccc2nc1Oc1ccc(OC)cc1`
> 100 µM

What is its TGI for MOLT-4 leukemia? Entry: `C/C1=C\CC/C(C)=C/C=C(/C(C)C)CC/C(C(=O)O)=C/CC1`
> 100 µM

What is its TGI for MOLT-4 leukemia? Entry: COc1cc(/C=C2/C(=O)NC(Cc3cc(OC)c(OC)c(C)c3OC)C(=O)N2Cc2ccccc2)c(OC)c(C)c1OC (configuration not stated)
70.5 µM

What is its TGI for MOLT-4 leukemia? Entry: `S=C(Nc1ccccc1)N(Cc1ccccc1)c1ccccc1`
> 100 µM

What is its TGI for MOLT-4 leukemia? Entry: `COc1ccc(/C=C/C(=O)c2cc3c(N)c(C(=O)Nc4ccccc4)sc3nc2C)cc1`
> 50 µM

---

# System: EKVX NSCLC
# Procedure Summary: NCI tumour cell line growth inhibition, 48 h
# Lookup of reported TGI keyed by entry

compound=Nc1ncc(CN2CCOCC2)c(-c2ccccc2O)n1 assay_result="> 100 µM"
compound=O=C1C[C@H]2CC3(CC[C@H]2CN1)OCCO3 assay_result="> 100 µM"

// lookup TGI for `COC(=O)[C@@H](C)C[C@H](Cc1ccccc1)NC(=O)c1csc([C@@H](C[C@H](C(C)C)N(C)C(=O)C2(NC(=O)[C@H]3CCCCN3C)CC2)OC(C)=O)n1`
> 33.3 µM

// lookup TGI for `Clc1ccc(SCCCCCCCCCCSc2ccc(Cl)cc2)cc1`
> 96.6 µM

// lookup TGI for O=C1c2ccccc2-c2c1c(-c1ccccc1)c1n2C2(C(=O)c3ccccc3C2=O)C2C(=O)N(c3ccccc3)C(=O)C12 (stereo unspecified)
> 100 µM

// lookup TGI for `Cc1cc(-c2nc3cc(O)ccc3s2)ccc1N`
60.1 µM

---

# Tested on: M14 melanoma
# Procedure Summary: NCI tumour cell line growth inhibition, 48 h
# Lookup of reported TGI keyed by entry

Known TGI results, listed for orientation:
compound="c1ccc(SC(CCCCOC2CCCCO2)Sc2ccccc2)cc1 (stereo not drawn)" assay_result="> 100 µM"
compound=COc1cccc(C[C@H]2COC(=O)[C@]2(O)Cc2cccc(OC)c2)c1 assay_result="> 100 µM"
compound=O=C1c2c(nc3ccccc3c2-c2ccccc2)CN1Nc1ccccc1 assay_result="> 100 µM"
compound="O=CC1C[C@@H](N2C(=O)O[C@@H](c3ccccc3)[C@H]2c2ccccc2)[C@@H]1COCc1ccccc1 (stereo partly drawn)" assay_result="34.2 µM"
compound="COc1cc([C@@H]2OC(=O)C3C2C(=O)O[C@H]3c2cc(OC)c(OC)c(OC)c2)cc(OC)c1OC (stereo partly drawn)" assay_result="> 100 µM"
compound=Clc1ccc(-c2nnc(C34CC5CC(CC(C5)C3)C4)o2)cc1 assay_result="> 100 µM"

// lookup TGI for `CN(C)CCCNc1ccc2nnn3c4ccc(OC(=O)c5ccc([N+](=O)[O-])cc5)cc4c(=O)c1c23`
27 µM

// lookup TGI for [C-]#[N+]C(C)(C)C[C@H]1CC(C)C2CCC(C)C3([N+]#[C-])CCC(=C)C1[C@H]23 (stereo partly drawn)
9.93 µM

// lookup TGI for `COc1cc(/C=C/C(=O)c2c(C)n([O-])c3ccc(Cl)cc3[n+]2=O)cc(OC)c1OC`
> 100 µM

// lookup TGI for `N/C(COc1ccc(Cl)cc1)=N\NC(=O)c1ccncc1`
> 100 µM
